Hello, the source for this data is the supplement of paper PMC9170038, in case you need it.

# System: K4 kissing-loop RNA reporter
# EXPERIMENTAL_PROTOCOL: apparent KD of K4 kissing-loop reporter; higher = weaker reporter binding
# RECORDED_CONDITIONS: Eterna round: R107; input ligand: theophylline 20 uM
ENDPOINT_LABEL: apparent KD of K4 kissing-loop reporter (nM)
Numeric answer only, unit nM assumed.

Some solved entries appear below for comparison.
## Task Need apparent KD of K4 kissing-loop reporter, item CAUACUAUCAGAAGGAGCGUGGAAUAUUCAUCUGUAUCUAAUACGAGUGAUGUUCGUAAUUCACAGGUAGGUCGCUGAUUAAUAC [whbob_Ex_Arginine_B_2th159]
## Result 269

## Task Need apparent KD of K4 kissing-loop reporter, item UCUGAAGGUGGAGGAUAUUGAUUGAAUCUUGGUCAGGAGUGAUGUUCCGGGAAGCCUUGGAUUCAUCGAGAAGGCCAAGGAUAGU [#10 K4 FMN B Same State]
## Result 306

## Task Need apparent KD of K4 kissing-loop reporter, item UAUUAAUAUUUUUCAGUGAUGUUAAUUGAUACCAGCCCGAAACCGGGCCCUUGGCAGCGAGUGAUGUUGGUUGUCAGCAUAAAUA [KL-XTheo-A13]
## Result 676

## Task Need apparent KD of K4 kissing-loop reporter, item AAACAUUGGUCUGAUACCAGUUAGACCGAUAAGGUCAAAACUGGAGUGAUGUUCCCAAAUAACCCUUGGCAGCAGACCGAUGAAA [MAT - Same State Theophlline B - Mod of Eli - D10]
## Result 185

## Task Need apparent KD of K4 kissing-loop reporter, item UCUGCAAAGUCGGCCGCCACUCCGGGCCCUAUAAAUGGGCGCAGUGAUGUUGCGGCUAGGCCUCUGAGGACCGGGACUUCGUAGA [Somale]
## Result 166

Shift focus to the following entry.
## Task Need apparent KD of K4 kissing-loop reporter, item UCUGGUAUAUCUGAUACCAGAGUAUAGUAUCAAUUGCAUAUCCGCAGUGAUGUUGCGGAACUCCCUUGGCAGCAGAUCUAUCUCU [Same State Theophylline B GF 26]
## Result 86.8

====

# Tested on: K4 kissing-loop RNA reporter;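 note: bound reporter read as fluorescence of individual clusters on recovered sequencing chips by microscopy, with normalized cluster intensities fitted with a binding model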
# EXPERIMENTAL_PROTOCOL: apparent KD of K4 kissing-loop reporter; higher = weaker reporter binding
# RECORDED_CONDITIONS: Eterna round: R107; input ligand: FMN 200 uM
ENDPOINT_LABEL: apparent KD of K4 kissing-loop reporter
State the result as a value with its unit after it.

## Task Need apparent KD of K4 kissing-loop reporter, item GUGCAGUGAUGUUGCACGAGGAAAGACGAUACCAGCCGUAAAUAAGGCCCUUGGCAGCGUAGGCUAGCAUAAAGUAUGCCAGUCU [Geleerra]
## Result 117 nM

New cases:
## Task Need apparent KD of K4 kissing-loop reporter, item AGAAGAUAUCGUGAUACCAGACCGCGGAGAGGCCGGAAGAGGGUAGUGAUGUUGCAUGCAGUCCCUUGGCAGCACUGACAGUAUU [theeternabot_sameState_KL_Theo_B_40]
## Result 754 nM

## Task Need apparent KD of K4 kissing-loop reporter, item UCGGGCGGCUGAAGGAGCGGGCGGGCCCGAGUGAUGUUCGGGUGGGCCGUGAGGCCCGGAGCCCAGGUAGGUCGCGGUUCCGCCC [#2 Same State - Arginine B Attempt #23 (HarryS)]
## Result 200 nM

## Task Need apparent KD of K4 kissing-loop reporter, item UUAGGAGUGGGAGGAUAUCCUGGUGUGGGUGAUGUUAGUGAUGUUGAAAGUGUAGUGAUGUUGUGCGGAGAAGGUCCAGUGUUGA [BDazzled - #10 - Exc. FMN B]
## Result 504 nM

====

# System: MS2 coat protein
# EXPERIMENTAL_PROTOCOL: apparent KD of MS2 coat protein; designed switch direction (-1 OFF switch, 1 ON switch): 1; higher = weaker reporter binding
# RECORDED_CONDITIONS: Eterna round: R95; input ligand: microRNA oligo, concentration not stated
ENDPOINT_LABEL: apparent KD of MS2 coat protein (µM)
Numeric answer only, unit µM assumed.

## Task Kindly state the measured apparent KD of MS2 coat protein obtained for UAUGAACAUGAGGAUCACCCAUGUGGUAAGAUCACAGGAUAUCACCUCGGACGUGCGAUGUGAGAAGGGUGAUGGU [Same State 1 - Mod of Vinnie Anrelari v.2] (puzzle: Same State 1) with MS2 coat protein.
## Result 0.419

Shift focus to the following entry.
## Task Kindly state the measured apparent KD of MS2 coat protein obtained for UAUGAACAUGAGGAUCACCCAUGUGGAAAAGACACAGGAUAUCAUCCCGGACGUGCGAGAUGAGAAGGGUGAUGGU [Edrive] (puzzle: Same State 1) with MS2 coat protein.
## Result 0.205

====

# System: MS2 coat protein
# EXPERIMENTAL_PROTOCOL: apparent KD of MS2 coat protein; designed switch direction (-1 OFF switch, 1 ON switch): -1; higher = weaker reporter binding
# RECORDED_CONDITIONS: Eterna round: R95; input ligand: microRNA oligo, concentration not stated
Listing: apparent KD of MS2 coat protein of selected sequences
Numeric answer only, unit nM assumed.

Some solved entries appear below for comparison.
## Task Need apparent KD of MS2 coat protein, item GGUACUAACACGAAAGUGUUAGUACUAUAAGCUUGUGUUACAUGAGGAUCACCCAUGUCCUCAUAAGCUCGUCUUAU [JL-sv3-2.16 mat747 mod] (puzzle: Sensor v3, turn-off variant 2)
## Result 19.6

## Task Need apparent KD of MS2 coat protein, item ACUAGGCGAGGAUAUACAUGCUUAACACAGCGAAAGCUGUGACAUGAGGAUCACCCAUGUAGAAGGCGCAAAUA [Enlaedondi] (puzzle: Exclusion 2)
## Result 43.2

## Task Need apparent KD of MS2 coat protein, item GAUUAUGCGAGCUUUAGGGACAUGAGGAUCACCCAUGUUCGUCUUAUUAAUCUGGGUACACUGACAUACCUAAAUCU [JMF 69] (puzzle: Sensor v3, turn-off variant 1)
## Result 48.4

## Task Need apparent KD of MS2 coat protein, item AAAGAACAUGAGGAUCACCCAUGUGAGGAUAUGCGAAAACCGCUGGCGCACCAGACGGGCAGAAGGCAUAUGGU [Aonustiri] (puzzle: Exclusion 1)
## Result 48.9

Shift focus to the following entry.
## Task Need apparent KD of MS2 coat protein, item CUUUUGUCAGGAUAUGAGUAGUAGAACAAUAGUACUACUACUCAGAAGGGACAUGAGGAUCACCCAUGUUCCUC [Fiskers Ex 4 Super stable 44 mod 19] (puzzle: Exclusion 4)
## Result 16.2

====

# Tested on: MS2 coat protein
# EXPERIMENTAL_PROTOCOL: apparent KD of MS2 coat protein; designed switch direction (-1 OFF switch, 1 ON switch): 1; higher = weaker reporter binding
# RECORDED_CONDITIONS: Eterna round: R95; input ligand: microRNA oligo, concentration not stated
ENDPOINT_LABEL: apparent KD of MS2 coat protein (nM)
Numeric answer only, unit nM assumed.

Some solved entries appear below for comparison.
## Task Need apparent KD of MS2 coat protein, item GGUCCAGCCUGAGCUGGACAAAAGCAUGUACAUGAGGAUCACCCAUGUUCAUGUACAAGCUUUUUGCUCGUCUUAGU [salish99_208a_r3_069] (puzzle: Sensor for hsa-mir-208a)
## Result 16.3

## Task Need apparent KD of MS2 coat protein, item CCGCGCUGUCGAGAGGAUAUGCGGUGAUGGACAUGAGGAUCACCCAUGUUAGCGAUAGCAUUACUGUAGAAGGCUCUACAGCGGC [JL-ss2-3.10 ViennaUCT mod] (puzzle: Same State 2)
## Result 18.3

Shift focus to the following entry.
## Task Need apparent KD of MS2 coat protein, item AACAAGUUUUUGCUCGCUUAUAAGCAUGUACAUGAGGAUCACCCAUGUCAUGUACAAAGUCCAGCCUGAGCUGGACA [Reversing mir to lane 1] (puzzle: Sensor for hsa-mir-208a)
## Result 15.5

====

# System: MS2 coat protein
# EXPERIMENTAL_PROTOCOL: apparent KD of MS2 coat protein; higher = weaker reporter binding
# RECORDED_CONDITIONS: Eterna round: R107; input ligand: tryptophan 2.4 mM
Think of 20 nM as a floor: if apparent KD of MS2 coat protein stands on it or above, it is yes; beneath it, no.

Reference set, count: 8
## Task Check if apparent KD of MS2 coat protein >= 20 nM (inclusive). Item: UUUUUCGCGGGUGAUACCAGCAAAGUUGUACUGGUCUGGUACAUGAGGAUCACCCAUGUUUGCCCUUGGCAGCGCUCGGGAGAAG [#22 Exclusion-TheophyllineB]
## Result yes

## Task Check if apparent KD of MS2 coat protein >= 20 nM (inclusive). Item: UUUACAUGAGGAUCACCCAUGUGCCAUGAUACCAGACAUGAAAAUGUCCCUUGGCAGCAUGGGUGUAGCGUCGGGAAACCGACGC [Kohoutovice]
## Result no

## Task Check if apparent KD of MS2 coat protein >= 20 nM (inclusive). Item: AGGACGGUCGGAAGGAGCGGUACAUGAGGAUCACCCAUGUAUUCCUGGGCAUCCGUAGUGUGCCAGGUAGGUCGCCGAUUGCGGG [XArg-B7]
## Result yes

## Task Check if apparent KD of MS2 coat protein >= 20 nM (inclusive). Item: CCUAGCACACAUGAUACCAGCGACAUGAGGAUCACCCAUGUACGGCGUGUAUCGCAAGGUUGCCCUUGGCAGCAUGAUAGUGCUG [Xeerdi]
## Result no

## Task Check if apparent KD of MS2 coat protein >= 20 nM (inclusive). Item: UAACGGCACUGAAGGAGCGAGUUGACAAACAUGAGGAUCACCCAUGUUAUGGGUUGUUAAUCUCAGGUAGGUCGCAGUUGUCGUA [Same State Arginine B GF 20]
## Result yes

## Task Check if apparent KD of MS2 coat protein >= 20 nM (inclusive). Item: UAAUGUGAGAGAAGGAGCGGAGGUCUCGUUACAACAUGAGGAUCACCCAUGUAACGUACCGUCCAGGUAGGUCGCUCUCGGGCGC [lvacmullin]
## Result no

## Task Check if apparent KD of MS2 coat protein >= 20 nM (inclusive). Item: UACUUGCUGACGGCCGCCACUAGAACAUGAGGAUCACCCAUGUACGGCGGCCGUCAUGGGUGGACUAGGACCGGGUCAGCAAGAU [(Trp1)-(Ms2)-(T)'-(M)'-(Trp2)_Design6]
## Result no

## Task Check if apparent KD of MS2 coat protein >= 20 nM (inclusive). Item: AUCGUACCUGAUGAUACCAGCAUGUGCUCGUAACAUGAGGAUCACCCAUGUGAUCAGUGAUGCCCUUGGCAGCAUGAUCGGUACA [Same State - Theophylline B (Freestyle 16)]
## Result yes

Now consider the entry below.
## Task Check if apparent KD of MS2 coat protein >= 20 nM (inclusive). Item: `GGGCGCGAGACGGCCGCCACUACACAUGAGGAUCACCCAUGUAUGGCAACAUGAGGAUCUGCCAUUAGGACCGGGUCAGGGCCCA`
## Result yes
